Test system: Nanoluciferase (engineered Oplophorus gracilirostris luciferase)
Assay: Primary Nanoluciferase (NLuc) qHTS assay for identification of artifact compounds. (AID 1845222);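 also: NLuc secreted into diluted conditioned medium of S16 cells; 0% = DMSO and -100% = no enzyme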
Conditions: NLuc-conditioned medium, Nano-Glo luminescence, 5 min; series mostly up to 54.1 µM
Active and inactive are the calls of the source. Calls follow the shape of the dose curve; as a rule, active = well fitted inhibition curve with a large enough effect; inconclusive = small, poorly fitted or top-dose-only effect; inactive = flat fitted curve, though single readings scatter.
measureName: activity, negative = inhibition

A selection of reference data follows.
compound="CC(=O)N[C@H]1[C@H](O[C@H]2CC[C@@]3(C)C(CC[C@]4(C)C3CC=C3C5CC(C)(C)CC[C@]5(C(=O)O)C(O)C[C@]34C)C2(C)C)O[C@H](CO[C@@H]2O[C@H](C)[C@H](O)[C@H](O)[C@H]2O[C@@H]2OC[C@@H](O)[C@H](O)[C@H]2O)[C@@H](O)[C@@H]1O (stereo partly specified)" valueobserved="3.71% [at 11.6 µM] (inactive)"
compound=CC(=O)O[C@@H]1C2=C(O)C(=O)[C@](C)(OC(C)=O)C(=O)C2=CO[C@@]12O[C@@H](C)CC[C@H]2OC(C)=O valueobserved=inactive
compound=CN1CCC(c2cn(C)c3ccc(OS(=O)(=O)c4c(F)cccc4F)cc23)CC1 valueobserved=inactive
compound=C=C1C(=O)O[C@@H]2/C=C(\C)CC/C=C(/C=O)[C@H](OC)[C@@H](OC(=O)C(C)C)[C@@H]12 valueobserved=inactive
compound=O=C(Nc1ccc(Cl)cc1)Nc1cccc(-c2cccc(N3CCCC3)n2)c1 valueobserved=inactive

Kindly review the next compound as well.
Need activity, negative = inhibition of C/C=C(/C)C(=O)OC1C=C2C3C(C)C(C)C(OC(=O)C(C)C(C)O)CC3(C)CCC2(C)C2(C)CC(OC(C)=O)C3C(C)(C)C(O)C(=O)CC3(C)C12 (stereo unspecified) , thanks.
inactive
